target: T1, recombinant human DLL4 (human, UniProt Q9NR61 25-522); assay: SPR Biacore T100, hDLL4 on chip, VHH/Fab injected
T1 construct: also called rhDLL4; hDLL4
T1 sequence (Q9NR61 25-522): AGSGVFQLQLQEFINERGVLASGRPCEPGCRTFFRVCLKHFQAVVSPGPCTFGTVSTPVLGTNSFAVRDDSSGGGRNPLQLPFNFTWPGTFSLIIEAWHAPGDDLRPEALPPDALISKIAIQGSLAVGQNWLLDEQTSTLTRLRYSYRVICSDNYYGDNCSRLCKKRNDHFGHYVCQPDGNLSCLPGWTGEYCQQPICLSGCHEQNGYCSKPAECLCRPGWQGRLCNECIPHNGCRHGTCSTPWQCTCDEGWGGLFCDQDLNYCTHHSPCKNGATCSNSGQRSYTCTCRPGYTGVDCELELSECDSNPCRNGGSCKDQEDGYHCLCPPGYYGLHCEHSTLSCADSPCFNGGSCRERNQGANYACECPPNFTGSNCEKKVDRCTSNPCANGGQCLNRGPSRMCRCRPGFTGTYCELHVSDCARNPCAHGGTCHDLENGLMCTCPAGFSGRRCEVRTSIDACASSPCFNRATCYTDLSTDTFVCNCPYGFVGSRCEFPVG
Label MET when koff >= 0.004 s⁻¹; otherwise NOT MET.

Completed entries (count: 5):
DLLBII56C04 (VHH) VHH: EVQLVESGGGLVQPGGSLRLSCTASGFTFDVYAIGWFRQAPGKEPEGISCISSSGSITYYADSVKGRFTTSRDSAKNTVYLQMNSLKPEDTAVYYCATPGIAACRGIHYWGQGTQVTVSS: MET
DLLBII56A09 (VHH, also called 56A9; DLLBII56A9) VHH: EVQLVESGGGLVQPGGSLRLSCAASGFTFDDYAIGWFRQAPGKEPEGISCISSSGGITYYADSVKGRFTTSRDNAKNTVYLQMNSLKPEDTAVYYCATPGIAACRGIHYTGQGTQVTVSS: NOT MET
DLLBII101G08 (VHH, also called 101G8; DLLBII101G8) VHH: EVQLVESGGGLVQAGGSLRLSCAASGRTFSSYAMAWFRQAPGKEREFVAAIRWSGGTAYYADSVQGRFTISRDNAKNTVYLQMNSLKPEDTAVYYCANRAADTRLGPYEYDYWGQGTQVTVSS: NOT MET
DLLBII96C03 (VHH, also called 96C3) VHH: EVQLVESGGGLVQPGGSLRLSCAASGFTFGNYDMSWVRQAPGKGPEWVSAINSGGGDTYYADSVKGRFTISRDNAKNTLYLQMNSLKPEDTAVYYCATPRGWGPTGPHEYGYWGQGTQVTVSS: MET
DLLBII56H08 (VHH) VHH: EVQLVESGGGLVQPGGSLRLSCAASGFTFDDYAIGWFRQAPGKEPEEISCISSSGGITYYADSVKGRFTISRDNAKNTVYLQMNSLKPEDTAVYYCATPGIAACRGIHYTGQGTQVTVSS: NOT MET

Then there is this binder:
Q: Could you please find out whether DLLBII62C11 (VHH) VHH: EVQLMESGGGLVQPGGSLRLSCVAAGFTFSNYYMSWVRQAPGKGLEWVSVISPDGSNTYYADTVKGRFTISRGNAKNTLFLQMTGLKSEDAAVYYCARGSGSWGVHGQGTQVTVSS has koff that meets 0.004 s⁻¹ or exceeds it?
Ans: MET
